The reported measurements were obtained from paper PMC10934261.

tested on: human breast MCF-7 cancer cell line; assay: In vitro cytotoxic screening (MTT assay), MCF-7; type: cell-based; conditions: 25 µM; average ± standard deviation
Recorded measurements of Percentage cytotoxicity on MCF-7, one per entry
Please state the figure in %; there is no need to write the unit.

{"columns": ["Compound", "Assay result"],
 "data": [
  ["CC(=O)OC[C@@H](OC(C)=O)[C@@H](OC(C)=O)[C@H](OC(C)=O)c1nc2nc3sc4c(c3c(=O)n2[nH]1)CCC4 [Compound 12d]", 0.0],
  ["CC(=O)C/C(C)=N/n1c(N[C@@H]2O[C@H](COC(C)=O)[C@@H](OC(C)=O)[C@H](OC(C)=O)[C@H]2OC(C)=O)nc2sc3c(c2c1=O)CCC3", 0.0],
  ["COc1ccc(-c2nn3c(=O)c4c5c(sc4nc3n2[C@@H]2O[C@H](COC(C)=O)[C@@H](OC(C)=O)[C@H](OC(C)=O)[C@H]2OC(C)=O)CCC5)cc1", 0.0],
  ["CC(=O)C/C(C)=N/n1c(N)nc2sc3c(c2c1=O)CCC3", 31.9],
  ["CC(=O)OC[C@H]1O[C@@H](n2cnn3c(=O)c4c5c(sc4nc23)CCC5)[C@H](OC(C)=O)[C@@H](OC(C)=O)[C@@H]1OC(C)=O", 0.0]
]}

What value of measured Percentage cytotoxicity on MCF-7 is listed for O=c1c2c3c(sc2nc2[nH]c(-c4c5ccccc5cc5ccccc45)nn12)CCC3 [Compound 10e] ?
85.6

Proceed to O=c1c2c3c(sc2nc2nc([C@@H](O)[C@H](O)[C@H](O)CO)[nH]n12)CCC3 [Compound 11d]
29.2

Proceed to O=c1c2c3c(sc2nc2nc([C@H](O)[C@@H](O)[C@@H](O)[C@H](O)CO)[nH]n12)CCC3 [Compound 11b]
0.0

Proceed to O=c1c2c3c(sc2nc2[nH]c(-c4ccc(Br)cc4)nn12)CCC3 [Compound 10b]
64.4

Proceed to Cc1nn2c(=O)c3c4c(sc3nc2[nH]1)CCC4
0.0

Proceed to O=c1c2c3c(sc2nc2[nH]c(-c4ccc(Cl)cc4)nn12)CCC3 [Compound 10a]
33.3

====

Recorded measurements of melting point, one per entry

Example results:
{"columns": ["Compound", "melting point"],
 "data": [
  ["O=c1c2c3c(sc2nc2[nH]c(-c4ccc([N+](=O)[O-])cc4)nn12)CCC3 [Compound 10c]", "220 °C"],
  ["O=c1c2c3c(sc2nc2nc([C@@H](O)[C@@H](O)[C@H](O)[C@H](O)CO)[nH]n12)CCC3 [Compound 11c]", "> 300 °C"],
  ["CCOC(=O)Cc1nn2c(=O)c3c4c(sc3nc2[nH]1)CCC4", "> 300 °C"],
  ["O=c1c2c3c(sc2nc2[nH]c(-c4ccc(Cl)cc4)nn12)CCC3 [Compound 10a]", "220 to 222 °C"],
  ["O=c1c2c3c(sc2nc2[nH]c(-c4ccc(Br)cc4)nn12)CCC3 [Compound 10b]", "268 to 270 °C"]
]}

Here's the next entry for you.
What value of measured melting point is listed for O=c1c2c3c(sc2nc2nc([C@H](O)[C@@H](O)[C@H](O)[C@H](O)CO)[nH]n12)CCC3 [Compound 11a] ?
> 300 °C
